Please provide measured Relative Proliferation Fold Change NKL 1:10 for the entries that follow.
# target_desc: T1, orthogonal hCD122 receptor (hoRb), hCD122 with H133D and Y134F (human, UniProt P14784 27-550); further: reference of the scale not given here
# T1 sequence: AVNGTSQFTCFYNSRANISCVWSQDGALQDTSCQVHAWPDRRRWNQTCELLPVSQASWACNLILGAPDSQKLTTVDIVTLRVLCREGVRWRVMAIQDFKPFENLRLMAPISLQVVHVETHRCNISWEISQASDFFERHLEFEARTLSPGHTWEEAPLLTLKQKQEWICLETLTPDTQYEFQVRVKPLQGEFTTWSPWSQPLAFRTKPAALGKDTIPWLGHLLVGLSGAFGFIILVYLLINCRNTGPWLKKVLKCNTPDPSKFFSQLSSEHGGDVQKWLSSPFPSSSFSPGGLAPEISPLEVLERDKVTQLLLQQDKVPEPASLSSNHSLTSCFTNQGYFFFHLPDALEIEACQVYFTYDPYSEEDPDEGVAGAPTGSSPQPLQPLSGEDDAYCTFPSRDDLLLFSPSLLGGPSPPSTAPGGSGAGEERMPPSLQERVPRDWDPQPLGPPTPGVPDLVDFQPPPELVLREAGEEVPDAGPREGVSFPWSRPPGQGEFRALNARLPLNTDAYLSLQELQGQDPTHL
# test: cell-based or functional assay
Respond with the figure and its unit, in that order.

C125A, SQVLKA (ligand) APTSSSTKKTQLQLSQLLVLLKAILNGINNYKNPKLTRMLTFKFYMPKKATELKHLQCLEEELKPLEEVLNLAQSKNFHLRPRDLISNINVIVLELKGSETTFMCEYADETATIVEFLNRWITFAQSIISTLT = 3.6 fold
ΔL19, SQ_LKA (ligand) APTSSSTKKTQLQLSQLLLLKAILNGINNYKNPKLTRMLTFKFYMPKKATELKHLQCLEEELKPLEEVLNLAQSKNFHLRPRDLISNINVIVLELKGSETTFMCEYADETATIVEFLNRWITFCQSIISTLT = 0.62 fold
L14W, SQVLKA (ligand) APTSSSTKKTQLQWSQLLVLLKAILNGINNYKNPKLTRMLTFKFYMPKKATELKHLQCLEEELKPLEEVLNLAQSKNFHLRPRDLISNINVIVLELKGSETTFMCEYADETATIVEFLNRWITFCQSIISTLT = 2.83 fold
Q126K, SQVLKA (ligand) APTSSSTKKTQLQLSQLLVLLKAILNGINNYKNPKLTRMLTFKFYMPKKATELKHLQCLEEELKPLEEVLNLAQSKNFHLRPRDLISNINVIVLELKGSETTFMCEYADETATIVEFLNRWITFCKSIISTLT = 0.56 fold
T3A, SQVLKA (ligand) APASSSTKKTQLQLSQLLVLLKAILNGINNYKNPKLTRMLTFKFYMPKKATELKHLQCLEEELKPLEEVLNLAQSKNFHLRPRDLISNINVIVLELKGSETTFMCEYADETATIVEFLNRWITFCQSIISTLT = 4.22 fold

Then this binder:
For the binder shown here, Q126E, SQVLKA (ligand) APTSSSTKKTQLQLSQLLVLLKAILNGINNYKNPKLTRMLTFKFYMPKKATELKHLQCLEEELKPLEEVLNLAQSKNFHLRPRDLISNINVIVLELKGSETTFMCEYADETATIVEFLNRWITFCESIISTLT , give the reported Relative Proliferation Fold Change NKL 1:10.
0.68 fold

Where do these numbers come from? They come from patent US20210196796A1.
